In this section, each of the molecules is paired with its reported inhibition at 1 µM.
target: hNAMPT protein (Homo sapiens (Human), UniProt P43490); assay: NAMPT enzyme assay (TR-FRET/HTRF with BodiPY ligand); type: binding; conditions: NAMPT inhibition at compound concentration 1 μM; read-out: Percent Inhibition
Sequence (P43490 whole entry): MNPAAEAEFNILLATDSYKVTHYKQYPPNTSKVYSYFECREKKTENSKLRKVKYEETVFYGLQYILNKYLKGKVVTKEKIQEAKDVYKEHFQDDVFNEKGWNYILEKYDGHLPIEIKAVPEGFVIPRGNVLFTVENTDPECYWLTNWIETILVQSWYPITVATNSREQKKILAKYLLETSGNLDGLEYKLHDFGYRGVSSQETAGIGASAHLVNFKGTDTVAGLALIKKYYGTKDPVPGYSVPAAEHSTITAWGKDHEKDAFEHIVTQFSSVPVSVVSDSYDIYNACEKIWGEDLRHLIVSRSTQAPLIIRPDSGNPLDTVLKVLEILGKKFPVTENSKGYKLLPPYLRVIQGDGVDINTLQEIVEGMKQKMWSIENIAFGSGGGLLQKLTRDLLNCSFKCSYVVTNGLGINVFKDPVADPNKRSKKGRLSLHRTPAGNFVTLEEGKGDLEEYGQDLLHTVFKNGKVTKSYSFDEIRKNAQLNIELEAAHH
Give a bare numeral; the unit % is implied.

Examples with their reported inhibition at 1 µM follow.
CCOc1cc(-c2cnc(OC)cc2C)nc2cc(C(=O)NCCCc3nnc[nH]3)ccc12	86
CCOc1cc(-c2cccnc2OC)nc2cc(C(=O)NCCCc3ccn[nH]3)ccc12	95
Cc1nc(-c2ccc(Cl)cc2)nc2cc(C(=O)NCCCc3nnc[nH]3)ccc12	77

Query: Recall and state the measured inhibition at 1 µM for CCOc1cc(-c2cn[nH]c2)nc2cc(C(=O)NCCCc3nnc[nH]3)ccc12 .
Result: 63

Query: // Input: CCOc1cc(-c2ccnc(OC)c2)nc2cc(C(=O)NCCc3nnc[nH]3)ccc12 . Output its inhibition at 1 µM only.
Result: 79

Query: Given the molecule CCOc1cc(-c2ccnc(C)c2)nc2cc(C(=O)NCc3ccn4ncnc4c3)ccc12 , write its reported inhibition at 1 µM.
Result: 99

Query: # return recorded inhibition at 1 µM for entry CCCc1nc(-c2ccc(Cl)cc2)nc2cc(C(=O)NCCCc3nnc[nH]3)ccc12
Result: 97

Query: Please list inhibition at 1 µM recorded for the molecule CCOc1cc(-c2ccc(Cl)s2)nc2cc(C(=O)NCCc3nnc[nH]3)ccc12
Result: 97

Query: Return reported inhibition at 1 µM. Input molecule: CCOc1cc(-c2cc(OC)ncc2Cl)nc2cc(C(=O)NCCCc3nnc[nH]3)ccc12
Result: 97

---

target: hNAMPT protein (Homo sapiens (Human), UniProt P43490); assay: NAMPT enzyme assay (TR-FRET/HTRF with BodiPY ligand); assay type: binding; conditions: NAMPT inhibition at compound concentration 1 μM; read-out: Percent Inhibition
endpointLabel: inhibition at 1 µM (%)
Entry rule: numbers only, all in %.

Study these solved cases before continuing.
CCOc1cc(-c2ccncc2C)nc2cc(C(=O)NCCCc3nnc[nH]3)ccc12	97
CC(C)(C)OCc1nc(-c2ccc(Cl)cc2)nc2cc(C(=O)NCCCc3ncc[nH]3)ccc12	91
COc1nc(-c2ccc(Cl)cc2)nc2cc(C(=O)NCCCc3ncc[nH]3)ccc12	100
CCNc1nc(-c2ccc(F)cc2)nc2cc(C(=O)NCCCc3ncc[nH]3)ccc12	92
CCOc1cc(-c2ccc(OC)nc2)nc2cc(C(=O)NCCc3c[nH]nn3)ccc12	98
CCOc1cc(-c2ccnc(C)c2)nc2cc(C(=O)NCCCc3[nH]nnc3C)ccc12	94

Query: Check hNAMPT protein (Homo sapiens (Human), UniProt P43490) data and give inhibition at 1 µM for CCOc1nc(-c2ccc(F)cc2)nc2cc(C(=O)NCC(C)Cc3ncc[nH]3)ccc12 (centres unmarked) .
Result: 99

---

As an illustration, consider measured IC50 for compounds on hNAMPT protein (Homo sapiens (Human)).

CC(C)Cc1nc(-c2ccc(Cl)s2)nc2cc(C(=O)NCCCc3ncc[nH]3)ccc12	10 to 50 nM
CCOc1cc(-c2cnccc2OC)nc2cc(C(=O)NCCCc3nnc[nH]3)ccc12	> 100 nM
CCNc1cc(-c2ccc(F)cc2)nc2cc(C(=O)NCCCc3nnc[nH]3)ccc12	> 100 nM
CCOc1cc(-c2cccc(S(C)(=O)=O)c2)nc2cc(C(=O)NCCCc3nnc[nH]3)ccc12	10 to 50 nM
CC[C@@H](F)c1nc(-c2ccc(Cl)cc2)nc2cc(C(=O)NCCCc3ncc[nH]3)ccc12 (stereo in doubt)	< 10 nM

Query: Return value of IC50 for input CCOc1cc(-c2ccc(C)nc2OC)nc2cc(C(=O)NCCc3c[nH]nc3C)ccc12 , no commentary.
Result: 10 to 50 nM

Query: Recall and state the measured IC50 for O=C(NCCCc1ncc[nH]1)c1ccc2c(OCC3CC3)nc(-c3ccc(F)cc3)nc2c1 .
Result: < 10 nM

Query: Input CCOc1cc(-c2ccc(F)cc2)nc2cc(C(=O)NCc3ccn4ncnc4c3)ccc12 , output reported IC50.
Result: < 10 nM

Query: Check the records and state IC50 for CCOc1cc(-c2ccc(C)nc2)nc2cc(C(=O)NCCc3c[nH]nc3C)ccc12
Result: 10 to 50 nM

Query: Return reported IC50. Input compound: CCOc1cc(-c2cnc(Cl)cc2C)nc2cc(C(=O)NCCCc3nnc[nH]3)ccc12
Result: > 100 nM

Query: Look up and report measured IC50 for this entry: CCOc1cc(-c2ccc(C)nc2)nc2cc(C(=O)NCCCc3cc[nH]n3)ccc12
Result: 10 to 50 nM

Query: Please report IC50 for the following compound: CCOc1cc(-c2ccncc2)nc2cc(C(=O)NCCCc3nnc[nH]3)ccc12
Result: 10 to 50 nM

Query: Read off the recorded IC50 for CCOc1cc(-c2ccnc(C)c2)nc2cc(C(=O)NCCCc3nnc[nH]3)ccc12
Result: 10 to 50 nM

Query: Quickly give me recorded IC50 for COCCOc1nc(-c2ccc(F)cc2)nc2cc(C(=O)NCCCc3ncc[nH]3)ccc12
Result: < 10 nM

Query: Supply recorded IC50 for CCOc1cc(-c2ccc(F)cc2)nc2cc(C(=O)NCCCc3ccc(C)nc3)ccc12 here.
Result: < 10 nM

Query: Find the measured IC50 of CCOc1cc(-c2ccc(F)cc2)nc2cc(C(=O)N[C@H]3C[C@@H](c4nnc[nH]4)C3)ccc12 and report it.
Result: 10 to 50 nM

Query: Find the measured IC50 of CCOc1cc(-c2ccc(F)cc2)nc2cc(C(=O)NCc3nc(N)n[nH]3)ccc12 and report it.
Result: > 100 nM

Query: Give me measured IC50, please, for this compound: CCOc1cc(-c2ccc(F)cc2OC)nc2cc(C(=O)NCCCc3cnn[nH]3)ccc12
Result: < 10 nM

Query: Read off the recorded IC50 for CCOc1cc(-c2ccc(F)cc2)nc2cc(C(=O)NCC3CC3c3ncc[nH]3)ccc12 (single isomer, unassigned) [Compound I-50]
Result: < 10 nM

Query: Consider the compound O=C(NCCCc1nnc[nH]1)c1ccc2c(-n3ccnc3)cc(-c3ccc(F)cc3)nc2c1 . State its measured IC50.
Result: < 10 nM

Query: Entry CCOc1cc(-c2ccnc(OC)c2F)nc2cc(C(=O)NCCCc3nnc[nH]3)ccc12 needs its IC50 filled in; supply it.
Result: 10 to 50 nM

Query: Please indicate IC50 recorded for CCOc1c(F)c(-c2ccnc(OC)c2)nc2cc(C(=O)NCCCc3[nH]nnc3C)ccc12
Result: 50 to 100 nM

Query: Give reported IC50 value for Cc1nc(-c2ccc(Cl)cc2)nc2cc(C(=O)NCCCc3nnc[nH]3)ccc12
Result: > 100 nM

Query: Let me know recorded IC50 for CCCc1nc(-c2ccc(Cl)s2)nc2cc(C(=O)NCCCc3ncc[nH]3)ccc12 , thanks.
Result: < 10 nM

Query: Please supply the value of reported IC50 for the item CCSc1nc(-c2ccc(F)cc2)nc2cc(C(=O)NCCCc3ncc[nH]3)ccc12
Result: < 10 nM

Query: Please indicate IC50 recorded for CCOc1nc(-c2ccc(F)cc2)nc2cc(C(=O)NCCCc3ncc[nH]3)ccc12
Result: < 10 nM

Query: Given the compound CCOc1cc(-c2ccc(C)nc2)nc2cc(C(=O)NCCc3nnc[nH]3)ccc12 , write its reported IC50.
Result: 10 to 50 nM
